Molecular target: GTB (Homo sapiens, UniProt P16442, G235S/G268A/L266M/R176G)
Experiment: methyl TROSY CSP titration, TITAN lineshape analysis
Type: binding
Conditions: K D, GTB in presence of saturating H-Tris II
measure: pKd
Quick note: pKd means taking -log10 of the concentration in moles per liter.

Q. Tell me its pKd given O=c1ccn([C@@H]2O[C@H](COP(=O)(O)OP(=O)(O)O)[C@@H](O)[C@H]2O)c(=O)[nH]1 [UDP, uridine diphosphate] as the entry.
A. 5.22

* * *

Target: GTB (Homo sapiens, UniProt P16442, G235S/G268A/L266M/R176G)
Sequence (P16442 64-354 R176G/G235S/L266M/G268A limits assumed): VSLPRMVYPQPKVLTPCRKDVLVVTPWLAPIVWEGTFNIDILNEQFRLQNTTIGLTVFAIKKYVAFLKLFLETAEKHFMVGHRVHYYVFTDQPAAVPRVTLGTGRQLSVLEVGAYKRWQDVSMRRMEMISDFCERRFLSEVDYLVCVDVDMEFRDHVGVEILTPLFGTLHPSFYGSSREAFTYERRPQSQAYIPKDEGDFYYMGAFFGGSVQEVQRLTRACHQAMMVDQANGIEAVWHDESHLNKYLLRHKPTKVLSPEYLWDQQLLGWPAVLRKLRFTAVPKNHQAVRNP
Assay: methyl TROSY CSP titration, TITAN lineshape analysis
Assay type: binding
Settings: K D, GTB in presence of saturating H-Tris IV
measure: Kd
Could you kindly put the unit after your number?

Q. GET Kd | system: GTB (Homo sapiens, UniProt P16442, G235S/G268A/L266M/R176G) | item: O=c1ccn([C@@H]2O[C@H](COP(=O)(O)OP(=O)(O)O)[C@@H](O)[C@H]2O)c(=O)[nH]1 [UDP, uridine diphosphate]
A. 65 µM
